Test system: portions of intestine turned inside out
Experiment: absorption by portions of intestine turned inside out
Format: in vitro ADME
Settings: 37° C., Krebs Ringer, external concentration 10^-4 M; H2 SO4 salts, m 0 or 1, n 3
Measured PRODUCT ABSORPTION intestine inside out accompanies every entry in the list below.
experimental.readout: PRODUCT ABSORPTION intestine inside out

molecule	experimental.readout	obs.value
CCCCC(=O)N[C@@H](CC[S+](C)C[C@H]1O[C@@H](n2cnc3c(N)ncnc32)[C@H](O)[C@@H]1O)C(=O)[O-] (stereo partly drawn) [H COC4 H9 H]	PRODUCT ABSORPTION intestine inside out	0.028 nmoles/h/mg tissue
CCCOC(=O)[C@@H](N)CC[S+](C)C[C@H]1O[C@@H](n2cnc3c(N)ncnc32)[C@H](O)[C@@H]1O (stereo partly drawn) [C3 H7 H H, SAM n-propyl ester]	PRODUCT ABSORPTION intestine inside out	0.045 nmoles/h/mg tissue
C[S+](CC[C@H](NC(=O)c1ccccc1)C(=O)[O-])C[C@H]1O[C@@H](n2cnc3c(N)ncnc32)[C@H](O)[C@@H]1O (stereo partly drawn) [H COC6 H5 H, SAM benzoyl]	PRODUCT ABSORPTION intestine inside out	0.017 nmoles/h/mg tissue
C[S+](CC[C@H](NC(=O)CCCC(=O)O)C(=O)[O-])C[C@H]1O[C@@H](n2cnc3c(N)ncnc32)[C@H](O)[C@@H]1O (stereo partly drawn) [H Glutaryl H, SAM glutaryl]	PRODUCT ABSORPTION intestine inside out	0.018 nmoles/h/mg tissue
CCCCC(=O)N[C@@H](CC[S+](C)C[C@H]1O[C@@H](n2cnc3c(N)ncnc32)[C@H](OC(=O)CCCC)[C@@H]1OC(=O)CCCC)C(=O)[O-] (stereo partly drawn) [H COC4 H9 COC4 H9]	PRODUCT ABSORPTION intestine inside out	0.031 nmoles/h/mg tissue
CC(=O)N[C@@H](CC[S+](C)C[C@H]1O[C@@H](n2cnc3c(N)ncnc32)[C@H](OC(C)=O)[C@@H]1OC(C)=O)C(=O)[O-] (stereo partly drawn) [H COCH3 COCH3, SAM triacetyl]	PRODUCT ABSORPTION intestine inside out	0.047 nmoles/h/mg tissue

The origin of these recorded values is patent US4558122A.
